Readings of self-splicing fitness (ln) for the listed sequences
Assay: self-splicing fitness, log relative to wild type (ln ratio); higher = more splicing; Tetrahymena group I intron in knt gene, E. coli kanamycin selection, DiMSum; sequences stand for … in CUCUCU…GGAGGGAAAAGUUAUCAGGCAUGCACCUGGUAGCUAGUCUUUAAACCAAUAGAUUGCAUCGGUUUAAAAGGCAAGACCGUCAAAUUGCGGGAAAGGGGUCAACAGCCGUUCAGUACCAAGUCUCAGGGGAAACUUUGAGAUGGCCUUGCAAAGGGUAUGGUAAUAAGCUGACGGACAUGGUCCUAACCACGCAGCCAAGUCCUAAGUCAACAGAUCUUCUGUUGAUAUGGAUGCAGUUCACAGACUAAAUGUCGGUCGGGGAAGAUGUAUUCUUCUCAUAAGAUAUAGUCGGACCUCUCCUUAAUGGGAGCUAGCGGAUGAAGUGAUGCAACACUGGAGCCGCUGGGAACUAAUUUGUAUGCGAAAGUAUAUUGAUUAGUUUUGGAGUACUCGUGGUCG;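 note: selection with 25 µg/mL kanamycin versus none on LB agar overnight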
Details: 30 °C

sequence_text	self-splicing fitness (ln)
CGCGAGCAAUAUUACGGAAU	-3.2
GAGAAGCAAUAUUACGAGUG	-2.91
ACUGAGCAAUAUUACGUGGU	-4.07
CGAAAGCAAUAUUACGACUG	-0.103
GGAAAGCAAUAUUACGAACG	-0.51
CUUUAGCAAUAUUACGGGAC	-3.25
GUGCAGCAAUAUUACGCCGA	-1.56
AACUAGCAAUAUUACGCAUA	-1.64
CGACAGCAAUAUUACGCCCG	0.138
AACUAGCAAUAUUACGAUCA	-0.213
UACAAGCAAUAUUACGCUAA	-1.95
UCCAAGCAAUAUUACGUUCG	-3.57
CUCGAGCAAUAUUACGGGUC	-3.33
CAUCAGCAAUAUUACGUAAU	-2.56
CGCUAGCAAUAUUACGUCGG	-1.6
UCAUAGCAAUAUUACGUCGA	-0.314
UUUAAGCAAUAUUACGCUUU	-3.6
GCUUAGCAAUAUUACGCGGC	-2.35
GAGUAGCAAUAUUACGCUUU	-3.16
GACGAGCAAUAUUACGAGUU	-3.06
GUCCAGCAAUAUUACGUUGG	-3.27
UCUCAGCAAUAUUACGGUAC	-3.18
CUAUAGCAAUAUUACGUUAA	-4.29
CCCUAGCAAUAUUACGGUUG	-3.3
GCCCAGCAAUAUUACGUGUU	-0.583
UCCAAGCAAUAUUACGUGUA	-0.565
CCGAAGCAAUAUUACGAGUC	-3.86
AAGCAGCAAUAUUACGCUUA	-1.9
AGUCAGCAAUAUUACGGUUA	-1.15
CCACAGCAAUAUUACGUGAG	-0.847
ACGCAGCAAUAUUACGUGAG	-1.19
AACUAGCAAUAUUACGAAGA	-2.62
AUAAAGCAAUAUUACGUUAU	-0.793
GAUAAGCAAUAUUACGCUCG	-0.655
GGUCAGCAAUAUUACGCAGC	-1.76
UAGAAGCAAUAUUACGCAUA	-1.55
GAUAAGCAAUAUUACGACGC	0.303
CGAGAGCAAUAUUACGGCGC	-2.76
GUAAAGCAAUAUUACGACUG	-2.11
CACCAGCAAUAUUACGUGUU	-4.11
UACCAGCAAUAUUACGCCGG	-3.31
UCGGAGCAAUAUUACGAUAG	-3.29
ACGUAGCAAUAUUACGCGAA	-1.46
CCCCAGCAAUAUUACGACCA	-2.81
CAGAAGCAAUAUUACGGAGG	-1.91
AGAGAGCAAUAUUACGAAAG	-4.41
UGAAAGCAAUAUUACGAAUC	-3.58
CCAUAGCAAUAUUACGCAAA	-1.93

---

Assay: self-splicing fitness, log relative to wild type (ln ratio); higher = more splicing; Tetrahymena group I intron in knt gene, E. coli kanamycin selection, DiMSum; sequences stand for … in CUCUCU…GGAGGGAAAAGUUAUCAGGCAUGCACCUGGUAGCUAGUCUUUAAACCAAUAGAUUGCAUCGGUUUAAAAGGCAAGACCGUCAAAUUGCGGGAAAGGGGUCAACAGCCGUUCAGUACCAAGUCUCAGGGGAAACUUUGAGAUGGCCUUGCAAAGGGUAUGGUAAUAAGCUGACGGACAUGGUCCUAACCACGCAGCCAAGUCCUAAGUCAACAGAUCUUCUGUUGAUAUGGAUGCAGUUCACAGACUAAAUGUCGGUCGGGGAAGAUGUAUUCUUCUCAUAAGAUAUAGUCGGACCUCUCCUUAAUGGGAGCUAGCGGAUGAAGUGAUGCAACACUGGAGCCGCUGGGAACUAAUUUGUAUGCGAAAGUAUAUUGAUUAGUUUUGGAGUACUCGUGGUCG
Conditions: 37 °C

sequence_text	self-splicing fitness (ln)
GAUUAGCAAUAUUACGAGAU	-3.26
CGAAAGCAAUAUUACGUAAG	-0.000374
UCGUAGCAAUAUUACGUUCA	-0.421
GUUGAGCAAUAUUACGGACG	-1.42
AGCUAGCAAUAUUACGGAGA	-3.14
CUCCAGCAAUAUUACGUUUU	-3.12
GUCAAGCAAUAUUACGGGGA	-2.77
UGCAAGCAAUAUUACGGAGU	-3.18
GGUAAGCAAUAUUACGCCUG	-1.53
UCCCAGCAAUAUUACGGGUU	-1.54
CUAAAGCAAUAUUACGCGGC	-1.28
GCUUAGCAAUAUUACGUCCU	-0.274
AAUUAGCAAUAUUACGUAAU	-0.218
UGCAAGCAAUAUUACGCUCC	-1.37
CCUUAGCAAUAUUACGAAGU	-1.93
GAACAGCAAUAUUACGAGUA	-1.98
UACAAGCAAUAUUACGACCG	0.952
GAAUAGCAAUAUUACGGCAU	-0.0278
AACAAGCAAUAUUACGGCGU	0.163
GCUCAGCAAUAUUACGUGGC	-2.79
ACGAAGCAAUAUUACGGCUC	-1.62
GCCCAGCAAUAUUACGUAAA	-0.718
CGAUAGCAAUAUUACGUCCA	-0.237
CACAAGCAAUAUUACGAUAC	-2.5
CUGAAGCAAUAUUACGAUGU	-1.21
AUUAAGCAAUAUUACGCGAG	-0.38
UCAAAGCAAUAUUACGUAUA	-2.17
UCUCAGCAAUAUUACGAUCA	-0.219
GAUGAGCAAUAUUACGGGCA	-1.88
AAAUAGCAAUAUUACGGCUA	-0.0895
ACGAAGCAAUAUUACGUAUU	-2.18
GGGCAGCAAUAUUACGUAGC	-0.913
AUACAGCAAUAUUACGAAAA	-1.4
GGUUAGCAAUAUUACGGAAG	-2.49
CCGUAGCAAUAUUACGUAUG	0.203
AUGAAGCAAUAUUACGGUAA	-0.5
GGGAAGCAAUAUUACGAACA	-0.445
UCGUAGCAAUAUUACGGAUC	-2.85
AUAGAGCAAUAUUACGGCUU	-1.34
UAAGAGCAAUAUUACGUUCG	-0.784
AAAUAGCAAUAUUACGCUAU	-2.22
CAUCAGCAAUAUUACGCGCU	-1.87
UGUAAGCAAUAUUACGGACC	-0.408
GCGAAGCAAUAUUACGUCGG	-0.565
CAGAAGCAAUAUUACGAUGU	-1.97
AUGGAGCAAUAUUACGUUGA	-2.38
AGGCAGCAAUAUUACGCGAU	-1.93
CCGCAGCAAUAUUACGGGGG	-3.2

---

Readings of self-splicing fitness (ln) for the listed sequences
Assay: self-splicing fitness, log relative to wild type (ln ratio); higher = more splicing; Tetrahymena group I intron in knt gene, E. coli kanamycin selection, DiMSum; sequences stand for … in CUCUCU…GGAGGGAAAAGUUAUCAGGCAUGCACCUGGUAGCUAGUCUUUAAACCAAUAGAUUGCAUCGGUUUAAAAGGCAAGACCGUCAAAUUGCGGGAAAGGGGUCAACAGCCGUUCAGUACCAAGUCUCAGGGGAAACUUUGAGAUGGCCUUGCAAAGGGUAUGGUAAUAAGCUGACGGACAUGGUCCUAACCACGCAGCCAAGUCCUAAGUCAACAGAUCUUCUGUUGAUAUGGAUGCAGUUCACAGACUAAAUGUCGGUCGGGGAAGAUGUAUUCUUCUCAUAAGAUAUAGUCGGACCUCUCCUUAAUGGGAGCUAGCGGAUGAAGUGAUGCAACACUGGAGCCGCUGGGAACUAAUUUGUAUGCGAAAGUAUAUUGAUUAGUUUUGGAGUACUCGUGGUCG
Conditions: 37 °C
outcome_measure: self-splicing fitness (ln)

sequence_text	outcome_measure	measured_number
ACACAGCAAUAUUACGCCUC	self-splicing fitness (ln)	-1.73
ACUGAGCAAUAUUACGUGGU	self-splicing fitness (ln)	-2.56
CCUGAGCAAUAUUACGCAUG	self-splicing fitness (ln)	-2.27
UAAAAGCAAUAUUACGCAGA	self-splicing fitness (ln)	-1.17
CAUCAGCAAUAUUACGCAGU	self-splicing fitness (ln)	-1.78
UCUAAGCAAUAUUACGCCUG	self-splicing fitness (ln)	-1.14
UAAAAGCAAUAUUACGUACA	self-splicing fitness (ln)	-0.00957
ACGCAGCAAUAUUACGGCCC	self-splicing fitness (ln)	0.0347
AGCAAGCAAUAUUACGGGGA	self-splicing fitness (ln)	-2.1
GAAGAGCAAUAUUACGCGAG	self-splicing fitness (ln)	-2.16
UAAUAGCAAUAUUACGUUGC	self-splicing fitness (ln)	-2.71
AUGAAGCAAUAUUACGUGUG	self-splicing fitness (ln)	-0.763
CUGUAGCAAUAUUACGAUUC	self-splicing fitness (ln)	-3.19
GAUCAGCAAUAUUACGUGCA	self-splicing fitness (ln)	-0.489
CGGUAGCAAUAUUACGGACG	self-splicing fitness (ln)	-0.837
UCAAAGCAAUAUUACGGGGG	self-splicing fitness (ln)	-1.49
GGCAAGCAAUAUUACGUUAC	self-splicing fitness (ln)	-1.5
CGUGAGCAAUAUUACGCUGG	self-splicing fitness (ln)	-1.47
UGCGAGCAAUAUUACGAAAG	self-splicing fitness (ln)	-2.87
GAUGAGCAAUAUUACGUUUG	self-splicing fitness (ln)	-2.77
UUAUAGCAAUAUUACGUCAG	self-splicing fitness (ln)	-0.818
AGUUAGCAAUAUUACGCACG	self-splicing fitness (ln)	0.196
UCGCAGCAAUAUUACGUGUU	self-splicing fitness (ln)	-1.67
ACGUAGCAAUAUUACGGAGU	self-splicing fitness (ln)	-1.18
CAUCAGCAAUAUUACGACAU	self-splicing fitness (ln)	-1.51
UUGAAGCAAUAUUACGCCUA	self-splicing fitness (ln)	0.487
UGGCAGCAAUAUUACGCACU	self-splicing fitness (ln)	0.399
CGCUAGCAAUAUUACGUGUU	self-splicing fitness (ln)	-3.17
UGAUAGCAAUAUUACGCGGA	self-splicing fitness (ln)	-0.465
GUCUAGCAAUAUUACGAGUG	self-splicing fitness (ln)	-1.05
AUGCAGCAAUAUUACGGGCA	self-splicing fitness (ln)	0.227
GAGAAGCAAUAUUACGGAAA	self-splicing fitness (ln)	-1.92
AACCAGCAAUAUUACGGCAC	self-splicing fitness (ln)	-0.257
GGAAAGCAAUAUUACGGUAC	self-splicing fitness (ln)	-1.36
